system: SF-268; test: NCI tumour cell line growth inhibition, 48 h
Calls of active or inactive are those of the source. No stated cut-off is given here; in the data, active = GI50 up to about 1.1 µM and inactive = higher.
Can you answer with just one of these options? active, inactive

Worked examples, 8 molecules total:
molecule	label.class
CC[C@H]1C=CCC[C@@]2(C[C@@H]3CC[C@@H]4[C@H](C(=O)OCCCCCCCCCCCCCCCC(=O)N(CCCN)C[C@@H](O)CCN)[C@]5(CCC[C@@H](C)O5)NC(=[N+]34)N2)O1	active
COc1ccc(C2SC(=N)Nc3c2c(C)nn3C(=O)c2ccccc2O)cc1 (configuration not stated)	active
O=C(O)COc1cc(-c2ccccc2F)nc2cc3c(cc12)OCO3	inactive
N#CC12CC=C(c3ccccc3)N=C1NC(c1ccccc1)=CC2 (configuration not stated)	inactive
CC1CC(C#N)=C2NCCCCN2C1=O (configuration not stated)	inactive
N=C1N=C(N)c2cc3c(cc21)SCCSCCCSCCS3	inactive
CC1(C)Cc2nnsc2C2=C1C(=O)CCS2	inactive
Cc1cc2nc3c(C(OC4OC(CO)C(O)C(O)C4O)C(O)CO)nn(-c4ccc(F)cc4)c3nc2cc1C (configuration not stated)	inactive

Which outcome did this test record for the molecule CCCNC1=Nc2ccccc2[C@@H]2N(C)c3ccccc3C(C)C[C@]12C (some centres not stated) ?
inactive

Which outcome did this test record for the molecule CCOC(=O)C(=O)Nc1c(C)cccc1C ?
inactive

Which outcome did this test record for the molecule CCOC(=O)c1cc2c3c(c(C(C)=O)c(OC)c2[nH]1)N(C(=O)CC)CC3 ?
inactive

Which outcome did this test record for the molecule Cc1ccc(/N=N\c2c(O)ccc3cc(S(=O)(=O)O)ccc23)cc1 ?
inactive

Which outcome did this test record for the molecule O=c1nc(NC(c2ccccc2)(c2ccccc2)c2ccccc2)ccn1CCNCCn1ccc(NC(c2ccccc2)(c2ccccc2)c2ccccc2)nc1=O ?
inactive

Which outcome did this test record for the molecule OC[C@H](O)[C@@H](OCc1ccccc1)[C@H](NCc1ccccc1)c1cccs1 ?
inactive

Which outcome did this test record for the molecule O=C(CCc1nnc(S)[nH]1)Nc1ccccc1Cl ?
inactive

Which outcome did this test record for the molecule N#Cc1c(C[n+]2ccccc2)c2ccccc2oc1=O ?
inactive

Which outcome did this test record for the molecule Oc1cc(-c2cccc(OC(F)(F)F)c2)nc2ccc(N3CCCC3)cc12 ?
active

Which outcome did this test record for the molecule O=C(O)CCSc1nnc(COc2ccc(Cl)cc2)n1-c1ccccc1 ?
inactive

Which outcome did this test record for the molecule COC(=O)C(Cc1ccccc1)NC(=O)C(CCC(=O)OCc1ccccc1)NC(=O)OC(C)(C)C (configuration not stated) ?
inactive

Which outcome did this test record for the molecule Cc1nc2cc(Cl)c(N)cc2[nH]1 ?
inactive

Which outcome did this test record for the molecule COc1ccc2c(c1)[C@@]13CCCC[C@H]1[C@@H](C2)N(C)CC3=O ?
inactive

Which outcome did this test record for the molecule O=c1c2cc(Br)ccc2[nH]c(=S)n1-c1ccc(Br)cc1 ?
inactive

---

test system: UACC-257; assay: NCI tumour cell line growth inhibition, 48 h
Calls of active or inactive are those of the source. Rule as the data show it: active = GI50 up to about 1.1 µM and inactive = higher.
Can you answer with just one of these options? active, inactive

compound	label.class
CC(C)CCCC(C)[C@H]1CC[C@H]2n3c(nc4ccccc43)CCC[C@]12C (some centres not stated)	inactive
O=C1C(CN2CCCCC2)CCC1CN1CCCCC1 (configuration not stated)	inactive
CC1(C)C(=O)C(=Cc2ccco2)C1=O	inactive
CCc1n[nH]c(=O)n1N1C(=O)C2CC=CCC2C1=O (configuration not stated)	inactive

Which outcome did this test record for the compound CCOC(=O)/C(Br)=C1\OC(=O)c2ccccc2-c2ccccc21 ?
inactive

Which outcome did this test record for the compound O=S(=O)(/N=S(/Nc1ccccc1)C(Cl)Cl)c1ccccc1 (configuration not stated) ?
inactive

Which outcome did this test record for the compound O=c1ccc2[n+]([O-])c3ccc(O)cc3oc-2c1 [RESAZURIN] ?
inactive

Which outcome did this test record for the compound CCCCc1ccc(Nc2nc(OC)c3ncn(C4CC(O)C(CO)O4)c3n2)cc1 (configuration not stated) ?
inactive

Which outcome did this test record for the compound O=C(CCCl)NN=C1NCCCCN1 ?
inactive

Which outcome did this test record for the compound Oc1ccc(Br)cc1/C=N/C1CCCCC1 ?
inactive

Which outcome did this test record for the compound O=C1NC(c2ccccc2Cl)Nc2ccccc21 (configuration not stated) ?
inactive

Which outcome did this test record for the compound OC1OCC(COc2cc(Cl)c(Cl)cc2Cl)OC1O (configuration not stated) ?
inactive

Which outcome did this test record for the compound O=C1Oc2ccccc2C(=O)/C1=C/N1C(=O)/C(=C/c2ccc3c(c2)OCO3)SC1=S ?
inactive

Which outcome did this test record for the compound CCO/C([O-])=C(\C(=O)c1ccc([N+](=O)[O-])cc1)[n+]1c(C)n(C)c2ccccc21 ?
inactive

Which outcome did this test record for the compound COC(=O)c1ccccc1/C=C1/Cc2cccc(C)c2C1=O ?
inactive

Which outcome did this test record for the compound FC(F)(F)c1nc(-c2ccccc2Cl)[nH]c1C(F)(F)F ?
active

Which outcome did this test record for the compound CC(C)(CN1CCCCC1)C(=O)/C=C/c1ccc(/C=C/C(=O)C(C)(C)CN2CCCCC2)cc1 ?
active

Which outcome did this test record for the compound COC(=O)C(C(=O)c1ccccc1)C(C(=O)C(=O)Nc1ccc(OC)cc1OC)C(=O)C(=O)c1ccc(C)cc1 (configuration not stated) ?
inactive

Which outcome did this test record for the compound c1ccc2c(c1)C(=Nc1ccc(N=C3c4ccccc4-c4ccccc43)cc1)c1ccccc1-2 ?
inactive

Which outcome did this test record for the compound CC1CNC(c2ccc(CN3CCC(C4CCN(Cc5ccc(C6=NC(C)CN6)cc5)CC4)CC3)cc2)=N1 (configuration not stated) ?
inactive

Which outcome did this test record for the compound COC(CNC(=O)C(C)NC(=O)CCc1ccccc1)OC (configuration not stated) ?
inactive

Which outcome did this test record for the compound CC(=O)Oc1ccc(/C=C/C(=O)OCCCOC(=O)/C=C/c2ccc(OC(C)=O)c(OC(C)=O)c2)cc1OC(C)=O ?
inactive

FYI, the data here is from ChEMBL document CHEMBL1201862.
